Target: PDGFRB (Homo sapiens)
Construct: purchased Thermo Fisher Scientific (SelectScreen service)
Sequence (P09619 33-1106): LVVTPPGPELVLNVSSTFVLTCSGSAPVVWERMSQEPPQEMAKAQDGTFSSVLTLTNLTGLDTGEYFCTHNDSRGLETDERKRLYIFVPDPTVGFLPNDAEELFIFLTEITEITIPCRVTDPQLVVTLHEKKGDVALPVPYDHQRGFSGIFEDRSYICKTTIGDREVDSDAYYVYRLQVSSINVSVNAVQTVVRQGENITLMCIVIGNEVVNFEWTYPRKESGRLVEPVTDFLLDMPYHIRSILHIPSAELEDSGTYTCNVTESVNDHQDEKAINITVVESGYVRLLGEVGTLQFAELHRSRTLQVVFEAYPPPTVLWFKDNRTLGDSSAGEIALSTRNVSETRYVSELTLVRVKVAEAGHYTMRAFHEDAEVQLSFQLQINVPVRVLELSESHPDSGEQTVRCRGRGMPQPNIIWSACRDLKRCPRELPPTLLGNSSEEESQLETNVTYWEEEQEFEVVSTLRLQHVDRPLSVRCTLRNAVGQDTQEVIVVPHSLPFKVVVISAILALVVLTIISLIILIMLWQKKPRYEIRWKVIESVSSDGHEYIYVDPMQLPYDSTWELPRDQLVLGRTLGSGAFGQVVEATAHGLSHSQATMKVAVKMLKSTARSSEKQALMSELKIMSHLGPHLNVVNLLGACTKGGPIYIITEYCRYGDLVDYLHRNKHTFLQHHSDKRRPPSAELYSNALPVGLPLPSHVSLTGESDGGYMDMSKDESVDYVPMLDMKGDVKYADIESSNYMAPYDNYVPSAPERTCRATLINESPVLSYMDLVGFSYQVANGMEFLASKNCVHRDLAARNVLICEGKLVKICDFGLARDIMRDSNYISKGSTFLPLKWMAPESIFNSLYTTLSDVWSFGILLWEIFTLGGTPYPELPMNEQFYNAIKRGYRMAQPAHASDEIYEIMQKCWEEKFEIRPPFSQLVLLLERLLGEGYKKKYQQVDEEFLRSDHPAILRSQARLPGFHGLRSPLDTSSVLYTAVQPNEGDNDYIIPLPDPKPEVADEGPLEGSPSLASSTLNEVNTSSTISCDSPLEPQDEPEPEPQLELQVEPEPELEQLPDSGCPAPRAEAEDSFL
Assay: SelectScreen kinase selectivity assay
Type: biochemical
Method: The kinase selectivity analysis of PKHD-5 was performed using the SelectScreen kinase analysis service provided by Thermo Fisher Scientific. […] Ultimately, the IC50 values were calculated based on the concentration-inhibition curves by fitting a four-parameter logistic curve, thereby assessing the potency and selectivity of the inhibitors. […]
MEASUREMENT LABEL: IC50

Exercise: Give PDGFRB (Homo sapiens) IC50 for Cc1ccc(O)c(C)c1-n1c(N)c(C(N)=O)c2cc(CCCCCC(=O)NO)c(C)nc21 [PKHD-5]
Solution: > 50 µM

---

assay: In vivo pharmacokinetics; settings: BALB/c, mouse, plasma; mice, PO, 5 mg/kg
MEASUREMENT LABEL: bioavailability (%)
Please give a number only; it is taken to be in %.

Exercise: Which bioavailability is reported for this compound? Cc1ccc(O)c(C)c1-n1c(N)c(C(N)=O)c2cc(CCCCCC(=O)NO)c(C)nc21
Solution: 66
